Test system: 786-O (human RCC) cells
Assay: In vitro cytotoxicity, MTT assay, in absence or presence of neutrophil elastase
Type: cell-based
Conditions: Homo sapiens, 786-0, 72 h exposure, with 20 nM neutrophil elastase, read-out: IC50 786–0 + neutrophil elastase
Where a SMILES comes first, the peptide text is derived from it. [ ]: non-standard residue; d: D form. The star is where a group is joined. Dolaproine = CO[C@@H]([C@@H]1CCCN1)[C@@H](C)C(=O)O; Dil = CC[C@H](C)[C@H](NC)[C@@H](CC(=O)O)OC; X1 = C[C@@H](N*)[C@@H](O)c1ccccc1; NMeV = CN[C@H](C(=O)O)C(C)C
property: IC50 (nM)
Give bare numbers, in nM.

Answer with reported IC50 of CC[C@H](C)[C@@H]([C@@H](CC(=O)N1CCC[C@H]1[C@H](OC)[C@@H](C)C(=O)N[C@H](C)[C@@H](O)c1ccccc1)OC)N(C)C(=O)[C@@H](NC(=O)[C@@H](NC)C(C)C)C(C)C [Compound 9, reference compound] (H-[NMeV]V[Dil][Dolaproine]-X1)
4.9

Please give the documented IC50 of CCc1c2c(nc3ccccc13)-c1cc3c(c(=O)n1C2)COC(=O)[C@]3(O)CC [Compound 7, 7-ethyl camptothecin, reference compound]
3.2

// Input: `CNC(=O)[C@@H](N)CCN(C(=O)CO)[C@@H](c1cc(-c2cc(F)ccc2F)cn1Cc1ccccc1)C(C)(C)C` . Output its IC50 only.
6

Consider the record given below.
Please report IC50 for the following molecule: `CC(C)(C)[C@H](c1cc(-c2cc(F)ccc2F)cn1Cc1ccccc1)N(CCCN)C(=O)CO`
2.5

* * *

Would you kindly list Papp A→B at 2 h, 2 μM for each of these molecules?
Assay: Caco-2 cell permeability flux assay
Assay type: in vitro ADME
Settings: human, 37 °C, mean of at least two assays
Answers are plain numbers, in ×10⁻⁶ cm/s.

In one line, give reported Papp A→B at 2 h, 2 μM of the entry `CNC(=O)[C@@H](N)CCN(C(=O)CO)[C@@H](c1cc(-c2cc(F)ccc2F)cn1Cc1ccccc1)C(C)(C)C` .
3.48

New cases:
Could you please provide reported Papp A→B at 2 h, 2 μM for `CC(C)(C)[C@H](c1cc(-c2cc(F)ccc2F)cn1Cc1ccccc1)N(CCCN)C(=O)CO` ? Thanks!
0.38

* * *

Answer each item with its documented efflux ratio at 2 h, 2 μM.
Assay: Caco-2 cell permeability flux assay
Assay type: in vitro ADME
Conditions: human, 37 °C, mean of at least two assays
Protocol: The cell permeability of the payloads released by the SMDCs 5 and 6, namely, compounds 10 and 11 were investigated with an in vitro flux assay using Caco-2 cells ([Troutman and Thakker, 2003]). The compounds were dissolved in HEPES buffer and applied (in triplicates) to the cells either on the apical (A) or basolateral (B) side of the Caco-2 monolayer at a final concentration of 2 μM. Before and after incubation for 2 h at 37 °C, samples were taken from both compartments and analyzed by LC-MS/MS. […]

Tell me efflux ratio at 2 h, 2 μM reported for `CNC(=O)[C@@H](N)CCN(C(=O)CO)[C@@H](c1cc(-c2cc(F)ccc2F)cn1Cc1ccccc1)C(C)(C)C`
8.7

Further cases:
Specify measured efflux ratio at 2 h, 2 μM for `CC(C)(C)[C@H](c1cc(-c2cc(F)ccc2F)cn1Cc1ccccc1)N(CCCN)C(=O)CO` .
129
